testSystem: human recombinant Aurora A (Homo sapiens (Human), UniProt O14965)
Sequence (O14965 whole entry): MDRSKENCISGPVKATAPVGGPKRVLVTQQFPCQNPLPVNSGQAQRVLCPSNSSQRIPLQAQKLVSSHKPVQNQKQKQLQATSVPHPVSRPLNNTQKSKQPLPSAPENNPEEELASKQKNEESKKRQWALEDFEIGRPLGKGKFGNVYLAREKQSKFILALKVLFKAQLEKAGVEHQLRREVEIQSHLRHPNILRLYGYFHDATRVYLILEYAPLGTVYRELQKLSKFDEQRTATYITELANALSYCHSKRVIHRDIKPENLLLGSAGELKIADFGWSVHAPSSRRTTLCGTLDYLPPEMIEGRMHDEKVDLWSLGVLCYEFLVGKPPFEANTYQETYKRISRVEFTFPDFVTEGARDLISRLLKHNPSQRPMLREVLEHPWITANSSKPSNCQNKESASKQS
testSummary: Aurora A Kinase Biochemical Assay (ADP-Glo)
conditionsUsed: ratio of Aurora A IC50 to PLK4 IC50 (selectivity)
Lab note: cut-off is 800. Strictly less in [Aurora A IC50 (nM)]/[PLK4 IC50 (nM)] is label 1. Exactly 800 or more is label 0.

IN: is_below([Aurora A IC50 (nM)]/[PLK4 IC50 (nM)], 800) for COc1ccc2c(c1)[C@]1(C[C@H]1c1ccc3c(Nc4cc(C(=O)N5CCOCC5)ccc4OC)n[nH]c3c1)C(=O)N2 ?
OUT: label 0

IN: Repeat for the following compound: COc1ccc2c(c1)[C@]1(C[C@H]1c1ccc3c(Nc4ncncc4OC)n[nH]c3c1)C(=O)N2
OUT: label 1

IN: Repeat for the following compound: COc1ccc2c(c1)[C@]1(C[C@H]1c1ccc3c(Nc4nc(C)nc(N5CCOCC5)c4OC)n[nH]c3c1)C(=O)N2
OUT: label 0

IN: Repeat for the following compound: COc1ccc2c(c1)[C@]1(C[C@H]1c1ccc3c(Nc4cc(OCCO)ncn4)n[nH]c3c1)C(=O)N2
OUT: label 1

IN: Repeat for the following compound: COc1ccc2c(c1)[C@]1(C[C@H]1c1ccc3c(Nc4nc(OC)ncc4C)n[nH]c3c1)C(=O)N2
OUT: label 1

Where do these numbers come from? They come from patent US20230365537A1.
